Tested on: Enterococcus faecium
Test: Antimicrobial activity against VanA expressing vancomycin-resistant Enterococcus faecium by micro broth dilution or agar based method
Type: functional
Settings: Enterococcus faecium; read-out: MIC
MEASUREMENT KIND: MIC

Some molecules with known MIC results, for comparison:
> print(dat)
                              line.notation  recorded.result
1  COc1ccc2nc(N3CCN(C)CC3)c(F)c(CCC34CCC(NCc5ccc6c(n5)NC(=O)CO6)(CC3)CO4)c2n1          32 mg/L
2  O=C1COc2ccc(CNC34CCC(CCc5c(F)cnc6cc(C(F)(F)F)cnc56)(CC3)OC4)nc2N1          16 mg/L
3  COc1cc2ncc(F)c(CCC34CCC(NCc5ccc6c(n5)NC(=O)CO6)(CC3)CO4)c2nc1OC           8 mg/L
4  COc1ccc2nc(N3CCNCC3)c(F)c(CCC34CCC(NCc5ccc6c(n5)NC(=O)CO6)(CC3)CO4)c2n1           8 mg/L
5  Cc1nc2c(CCC34CCC(NCc5ccc6c(n5)NC(=O)CO6)(CC3)CO4)ccnc2cc1C#N          16 mg/L
6  COc1cnc2c(CCC34CCC(NCc5ccc6c(n5)NC(=O)CO6)(CC3)CO4)ccnc2c1          64 mg/L

What MIC value was documented for this molecule, "COC(=O)c1ccc2ncc(F)c(CCC34CCC(NCc5ccc6c(n5)NC(=O)CO6)(CC3)CO4)c2n1" ? 16 mg/L
